systemName: recombinant TDP1 (Homo sapiens)
Construct: incubated with 40 pM full-length recombinant TDP1 or TDP1 (148–608)
assaySummary: in vitro gel-based fluorescence TDP1 catalytic assay
Assay type: biochemical
experimentalSetup: 40 pM recombinant TDP1, 1 nM N14Y DNA substrate, 15 min, room temperature; read-out: TDP1 IC50
Counter-ions that a name gives are not always drawn.
Hi there, I'd appreciate the recorded IC50 for every entry that follows.

// below: answered compounds
1) Nc1nc(/C(=C/CC(=O)O)C(=O)N[C@@H]2C(=O)N3C(C(=O)O)=CCS[C@H]23)cs1 [LD10, Ceftibuten dihydrate] ... > 1 mM
2) CO/N=C(\C(=O)N[C@@H]1C(=O)N2C(C(=O)O)=C(CSc3nc(=O)c(=O)[nH]n3C)CS[C@H]12)c1csc(N)n1 [LG2, Ceftriaxone sodium] ... > 1 mM
3) CO/N=C(\C(=O)N[C@@H]1C(=O)N2C(C(=O)[O-])=C(C[n+]3cccc4c3CCC4)CS[C@H]12)c1csc(N)n1 [LD3, Cefpirome sulfate] ... > 1 mM
4) CO/N=C(\C(=O)N[C@@H]1C(=O)N2C(C(=O)O)=C(COC(N)=O)CS[C@H]12)c1ccco1 [LF11, Cefuroxime sodium] ... 0.111 mM
5) CC1=C(C(=O)O)N2C(=O)C(N)C2SC1 (stereo not shown) ... > 1 mM

Hey, can you go through the list below and give me IC50 for every item?
1. CO[C@@]1(NC(=O)C2SC(=C(C(N)=O)C(=O)O)S2)C(=O)N2C(C(=O)O)=C(CSc3nnnn3C)CS[C@@H]21 (stereo partly shown)
2. CC1(C)S[C@@H]2[C@H](/N=C/N3CCCCCC3)C(=O)N2[C@H]1C(=O)O
3. CO/N=C(\C(=O)N[C@@H]1C(=O)N2C(C(=O)OC(C)OC(C)=O)=C(COC(N)=O)CS[C@H]12)c1ccco1 (stereo partly shown)
4. C=CC1=C(C(=O)O)N2C(=O)[C@@H](NC(=O)/C(=N\O)c3csc(N)n3)[C@H]2SC1
5. CN(C)CCn1nnnc1SCC1=C(C(=O)O)N2C(=O)[C@@H](NC(=O)Cc3csc(N)n3)[C@H]2SC1 [LE8, Cefotiam hydrochloride]
6. CCN1CCN(C(=O)N[C@@H](C(=O)N[C@@H]2C(=O)N3C(C(=O)O)=C(CSc4nnnn4C)CS[C@H]23)c2ccc(O)cc2)C(=O)C1=O
7. CCN1CCN(C(=O)N[C@@H](C(=O)N[C@@H]2C(=O)N3[C@@H]2SC(C)(C)[C@@H]3C(=O)O)c2ccccc2)C(=O)C1=O [LG3, Piperacillin sodium salt]
8. CO/N=C(\C(=O)N[C@@H]1C(=O)N2C(C(=O)OCOC(=O)C(C)(C)C)=C(/C=C\c3scnc3C)CS[C@H]12)c1csc(N)n1

["0.379 mM", "> 1 mM", "> 1 mM", "> 1 mM", "> 1 mM", "> 1 mM", "> 1 mM", "> 1 mM"]

====

I'd be grateful if you could share measured IC50 for these entries.
systemName: recombinant TDP1 (Homo sapiens, UniProt Q9NUW8)
Construct: incubated with 40 pM full-length recombinant TDP1 or TDP1 (148–608)
Sequence (Q9NUW8 whole entry): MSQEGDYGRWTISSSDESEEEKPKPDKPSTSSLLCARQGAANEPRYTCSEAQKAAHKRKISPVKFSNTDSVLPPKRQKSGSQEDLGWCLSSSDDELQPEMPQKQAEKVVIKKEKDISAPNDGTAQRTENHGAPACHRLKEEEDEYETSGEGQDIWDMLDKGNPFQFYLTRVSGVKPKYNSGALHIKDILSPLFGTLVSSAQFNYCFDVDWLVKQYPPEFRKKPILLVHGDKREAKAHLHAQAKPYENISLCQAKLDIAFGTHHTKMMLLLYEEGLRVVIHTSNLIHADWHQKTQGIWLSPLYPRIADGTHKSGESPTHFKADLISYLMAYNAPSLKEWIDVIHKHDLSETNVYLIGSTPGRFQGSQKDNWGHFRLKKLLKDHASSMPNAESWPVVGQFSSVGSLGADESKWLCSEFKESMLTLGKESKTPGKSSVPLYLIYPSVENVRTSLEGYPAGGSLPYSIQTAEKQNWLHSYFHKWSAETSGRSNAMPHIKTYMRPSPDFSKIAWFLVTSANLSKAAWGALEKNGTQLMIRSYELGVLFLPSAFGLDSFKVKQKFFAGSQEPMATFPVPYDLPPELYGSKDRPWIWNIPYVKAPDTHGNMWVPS
assaySummary: in vitro gel-based fluorescence TDP1 catalytic assay
Format: biochemical
experimentalSetup: 40 pM recombinant TDP1, 1 nM N14Y DNA substrate, 15 min, room temperature; read-out: TDP1 IC50
Where a name gives a salt, the structure may show the parent alone.

Guide cases for IC50, answers given:
1) CO/N=C(\C(=O)N[C@@H]1C(=O)N2C(C(=O)[O-])=C(C[n+]3cccc4c3CCCC4)CS[C@H]12)c1csc(N)n1 [LD11, Cefquinome sulfate] ... > 1000 µM
2) C[C@@H](O)[C@H]1C(=O)N2C(C(=O)O)=C(S[C@@H]3CN[C@H](CNS(N)(=O)=O)C3)[C@H](C)[C@H]12 [LE10, Doripenem Hydrate] ... > 1000 µM

Moving on to the next compound.
Which value of IC50 has been reported for CC1(C)S[C@@H]2[C@H](NC(=O)[C@H](C(=O)O)c3ccsc3)C(=O)N2[C@H]1C(=O)O [LB5, Ticarcillin sodium] in the records?
> 1000 µM
